Target: Collagenase 3 (Homo sapiens, UniProt P45452)
Assay: Inhibition of recombinant human MMP13 (104 to 274 residues) using Mca-Pro-Leu-Gly-Leu-Dpa-Ala-Arg-NH2 expressed in Escherichia coli expression system as substrate incubated for 15 mins followed by substrate addition and measured after 2 to 4 hrs by fluorescence based assay
reportedMetric: IC50 (µM)

Study these solved cases before continuing.
Cc1cc(C)cc(Nc2cc(-c3ccco3)cc3c2c(=O)[nH]c2ccccc23)c1 = 46
Cc1ccc(-c2cc(Nc3ccccc3)c3c(=O)[nH]c4ccccc4c3c2)cc1 = 41

I: O=c1[nH]c2ccccc2c2cc(-c3ccco3)cc(Nc3ccccc3)c12
II: O=c1[nH]c2ccccc2c2cc(-c3ccccc3)cc(Nc3ccc(F)cc3)c12
III: COc1ccc(Nc2cc(-c3ccco3)cc3c2c(=O)[nH]c2ccccc23)cc1
query: Reorder the items by IC50, least to greatest. A complete answer lists every label in the requested sequence.
result: III, I, II

I: CN(C)c1ccc(Nc2cc(-c3ccccc3)cc3c2c(=O)[nH]c2ccccc23)cc1
II: O=c1[nH]c2ccccc2c2cc(-c3cccs3)cc(Nc3ccccc3)c12
query: Which item exceeds the other in IC50, I or II ? Use the label to indicate which entry you chose.
result: I

====

Biological target: 72 kDa type IV collagenase (Homo sapiens, UniProt P08253)
Sequence (P08253 whole entry, the tested form may be a part): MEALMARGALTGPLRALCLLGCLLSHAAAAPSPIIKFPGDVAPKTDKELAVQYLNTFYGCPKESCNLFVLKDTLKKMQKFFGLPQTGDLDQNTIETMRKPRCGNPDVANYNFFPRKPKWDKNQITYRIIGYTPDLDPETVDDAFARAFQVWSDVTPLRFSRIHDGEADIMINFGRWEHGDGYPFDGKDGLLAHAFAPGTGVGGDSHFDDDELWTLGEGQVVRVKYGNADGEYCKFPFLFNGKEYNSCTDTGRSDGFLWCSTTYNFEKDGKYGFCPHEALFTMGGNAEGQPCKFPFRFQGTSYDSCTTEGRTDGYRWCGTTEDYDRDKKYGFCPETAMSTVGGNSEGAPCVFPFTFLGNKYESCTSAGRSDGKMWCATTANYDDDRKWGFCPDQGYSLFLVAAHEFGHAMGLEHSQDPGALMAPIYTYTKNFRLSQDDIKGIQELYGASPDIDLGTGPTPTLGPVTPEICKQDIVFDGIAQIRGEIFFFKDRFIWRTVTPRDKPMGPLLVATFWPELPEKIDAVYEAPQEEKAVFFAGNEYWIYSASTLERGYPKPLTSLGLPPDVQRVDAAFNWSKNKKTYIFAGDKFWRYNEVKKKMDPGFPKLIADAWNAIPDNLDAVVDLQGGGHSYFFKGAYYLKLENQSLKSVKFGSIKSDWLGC
Experiment: Inhibition of recombinant human MMP2 (110 to 452 residues) using Mca-Pro-Leu-Gly-Leu-Dpa-Ala-Arg-NH2 expressed in yeast expression system as substrate incubated for 15 mins followed by substrate addition and measured after 2 to 4 hrs by fluorescence based assay
pIC50: −log10 of the molar value.
reportedMetric: pIC50

COc1ccc(-c2cc(Nc3ccccc3)c3c(=O)[nH]c4ccccc4c3c2)cc1 = 4.33

A: O=c1[nH]c2ccccc2c2cc(-c3ccccc3)cc(Nc3ccc(F)cc3)c12
B: COc1ccc(Nc2cc(-c3cccs3)cc3c2c(=O)[nH]c2ccccc23)cc1
query: Which item exceeds the other in pIC50, A or B ? Use the label to indicate which entry you chose.
result: B

1: O=c1[nH]c2ccccc2c2cc(-c3ccco3)cc(Nc3ccccc3)c12
2: COc1ccc(Nc2cc(-c3ccccc3)cc3c2c(=O)[nH]c2ccccc23)cc1
query: Which item exceeds the other in pIC50, 1 or 2 ? Use the label to indicate which entry you chose.
result: 1

P: Nc1ccc(-c2cc(Nc3ccccc3)c3c(=O)[nH]c4ccccc4c3c2)cc1
Q: Cc1ccc(-c2cc(Nc3ccccc3)c3c(=O)[nH]c4ccccc4c3c2)cc1
query: Lower value of pIC50 belongs to which: P or Q ? Use the label to indicate which entry you chose.
result: Q
(Q: 4.07, P: 4.49)

P: O=c1[nH]c2ccccc2c2cc(-c3cccs3)cc(Nc3ccccc3)c12
Q: COc1ccc(Nc2cc(-c3ccccc3)cc3c2c(=O)[nH]c2c(OC)c(OC)ccc23)cc1
query: Which item exceeds the other in pIC50, P or Q ? Use the label to indicate which entry you chose.
result: P
(P: 5.21, Q: 4.38)

====

Target: Collagenase 3 (Homo sapiens)
Test: Inhibition of recombinant human MMP13 (104 to 274 residues) using Mca-Pro-Leu-Gly-Leu-Dpa-Ala-Arg-NH2 expressed in Escherichia coli expression system as substrate incubated for 15 mins followed by substrate addition and measured after 2 to 4 hrs by fluorescence based assay
reportedMetric: IC50 (µM)

I: CCCCNc1cc(-c2ccccc2)cc2c1c(=O)[nH]c1ccccc12
II: COc1ccc(-c2cc(Nc3ccccc3)c3c(=O)[nH]c4ccccc4c3c2)cc1
query: Which item exceeds the other in IC50, I or II ? Use the label to indicate which entry you chose.
result: I
(I: 60 µM, II: 40 µM)

a: O=c1[nH]c2ccccc2c2cc(-c3cccs3)cc(Nc3ccc(F)cc3)c12
b: COc1ccc(Nc2cc(-c3cccs3)cc3c2c(=O)[nH]c2ccccc23)cc1
c: COc1ccc(Nc2cc(-c3ccccc3)cc3c2c(=O)[nH]c2c(OC)c(OC)ccc23)cc1
d: Nc1ccc(-c2cc(Nc3ccccc3)c3c(=O)[nH]c4ccccc4c3c2)cc1
query: Task field, ranking: reported IC50, descending order. A complete answer lists every label in the requested sequence.
result: d, c, a, b
(d: 73 µM, c: 37 µM, a: 15.8 µM, b: 5.4 µM)

1: COc1ccc(Nc2cc(-c3ccccc3)cc3c2c(=O)[nH]c2ccccc23)cc1
2: O=c1[nH]c2ccccc2c2cc(-c3ccccc3)cc(Nc3ccccc3)c12
query: Lower value of IC50 belongs to which: 1 or 2 ? Use the label to indicate which entry you chose.
result: 1

# credit: ChEMBL document CHEMBL4732123
